System: MS2 coat protein
PROCEDURE_DETAILS: apparent KD of MS2 coat protein, switch ON state; designed switch direction (-1 OFF switch, 1 ON switch): -1; higher = weaker reporter binding
STUDY_CONDITIONS: FMN input: 0 or 200 uM; Eterna round: R93 (includes R88 designs)
Each item that follows carries a reported apparent KD of MS2 coat protein.
Number only, in nM; omit the unit.

In the examples that follow, each entry is paired with its recorded apparent KD of MS2 coat protein.
>>> df
                              sequence_data     system_tested  result_units  value_reported
0  AGCUAGUCAGGAUAUACGAGAAUGUCAAAAGACGUGAAGGGACAUGAGGAUCACCCAUGUAGAAGGGACUAGCA [Diamond 23]  MS2 coat protein            nM            39.3
1  AAAAGGGCAGGAUAUGCGUACUCACGGAAAAACUGGAUGGUACAUGAGGAUCACCCAUGUAGAAGGGCUAAAAA [Dora Explored 17 - Jieux - Exclusion 2]  MS2 coat protein            nM            57.5
2  UUAGAACAUGAGGAUCACCCAUGUGAGGAUAUGCAAUACUAAAAUUAAGAUAAUUAUAGCAGAAGGCACGUAGU [JR_EXc001_Sub804]  MS2 coat protein            nM            33.2
3  AAAAAUGGAGGAUAUACAUGAGGAUCACCCAUGUUAGAACAAAAAAAAGGGAAAGAAAGUAGAAGGCCAUAAAA [Ex 3 May 25]  MS2 coat protein            nM            34.7
4  AGUCAGAGAGGAUAUACAUGAAAAAAAAAAGUUAGAUCCCUACAUGAGGAUCACCCAUGUAGAAGGCUCUGACA [Ex2 Design 151: Sub-opt 15]  MS2 coat protein            nM            57.8

Value of apparent KD of MS2 coat protein reported for the sequence AAACUACUAGGAUAUACAACGGUGUCCUAACUACUAAGAAAACAUGAGGAUCACCCAUGUAGAAGGAGUAAUAA [Cearused] is 35.8

Input AGAACGUGAGGAUAUACUAACAAACCUCAACAAACAAACAGACAUGAGGAUCACCCAUGUAGAAGGCACAAAAA [EXC - 2] . Output apparent KD of MS2 coat protein: 54.2

GET /value?item= AGUUGGCGAGGAUAUACAUGAGGAUCACCCAUGUAAAAUAAUGAAAAAGUAGGGAAAAGUAGAAGGCGCUGACA [73%, Moding Norbert Elias, 19] &field=apparent KD of MS2 coat protein returns 36.2

The recorded apparent KD of MS2 coat protein for AAAAAGGGAGGAUAUACAUGAGGAUCACCCAUGUGAAGGACGAAAAAGAGUCUAAAGGGUAGAAGGCCCAAAAA [65%, Moding Exclusion3-cac2, 11] is 52.5

Just so you know, measured apparent KD of MS2 coat protein for UCGAUGUCAGGAUAUGUGUAAAGAAUAAAACAAAUAACAACACAGAAGGGACAUGAGGAUCACCCAUGUUACGA [May 42] came out at 42.2

# sequence AGGAUGUCAGGAUAUGUGUAAAGAAUAAAACAAAUAACAACACAGAAGGGACAUGAGGAUCACCCAUGUUACCA [May 37] ; its apparent KD of MS2 coat protein = 19.9

Entry under test: AAGGGACAUGAGGAUCACCCAUGUCAGGAUAUGCUAUGGAAAAAUAAAAUAAAACAUAGCAGAAGGGAUAAAAA [Mat - Exclusion 1 - Eli mod - D32] . Its apparent KD of MS2 coat protein was 23

AAAAAGGUAGGAUAUACAUGAGGAUCACCCAUGUAAAUAAAUGGAGAAAAAAACAAUUGUAGAAGGGCCAAAAA [Ex3 Malc#8] yielded apparent KD of MS2 coat protein of 39.9
